target: H^+ /K^+ ATPase (Oryctolagus cuniculus); construct: Rabbit gastric glands are isolated from gastric mucosa; from tissue; host or cells: rabbit isolated gastric glands (gastric mucosa, corpus region of the stomach); experiment: Inhibition of 14C-aminopyrine uptake in rabbit isolated gastric glands stimulated by DBcAMP or high K+ (anti-secretory activity); type: cell-based; settings: 10^-4 M; 14C-aminopyrine uptake in rabbit gastric glands stimulated by high K^+; % inhibition of maximum response to secretagogue; read-out: % Inhibition to stimulation by: K^+
Sequence (P27112 whole entry): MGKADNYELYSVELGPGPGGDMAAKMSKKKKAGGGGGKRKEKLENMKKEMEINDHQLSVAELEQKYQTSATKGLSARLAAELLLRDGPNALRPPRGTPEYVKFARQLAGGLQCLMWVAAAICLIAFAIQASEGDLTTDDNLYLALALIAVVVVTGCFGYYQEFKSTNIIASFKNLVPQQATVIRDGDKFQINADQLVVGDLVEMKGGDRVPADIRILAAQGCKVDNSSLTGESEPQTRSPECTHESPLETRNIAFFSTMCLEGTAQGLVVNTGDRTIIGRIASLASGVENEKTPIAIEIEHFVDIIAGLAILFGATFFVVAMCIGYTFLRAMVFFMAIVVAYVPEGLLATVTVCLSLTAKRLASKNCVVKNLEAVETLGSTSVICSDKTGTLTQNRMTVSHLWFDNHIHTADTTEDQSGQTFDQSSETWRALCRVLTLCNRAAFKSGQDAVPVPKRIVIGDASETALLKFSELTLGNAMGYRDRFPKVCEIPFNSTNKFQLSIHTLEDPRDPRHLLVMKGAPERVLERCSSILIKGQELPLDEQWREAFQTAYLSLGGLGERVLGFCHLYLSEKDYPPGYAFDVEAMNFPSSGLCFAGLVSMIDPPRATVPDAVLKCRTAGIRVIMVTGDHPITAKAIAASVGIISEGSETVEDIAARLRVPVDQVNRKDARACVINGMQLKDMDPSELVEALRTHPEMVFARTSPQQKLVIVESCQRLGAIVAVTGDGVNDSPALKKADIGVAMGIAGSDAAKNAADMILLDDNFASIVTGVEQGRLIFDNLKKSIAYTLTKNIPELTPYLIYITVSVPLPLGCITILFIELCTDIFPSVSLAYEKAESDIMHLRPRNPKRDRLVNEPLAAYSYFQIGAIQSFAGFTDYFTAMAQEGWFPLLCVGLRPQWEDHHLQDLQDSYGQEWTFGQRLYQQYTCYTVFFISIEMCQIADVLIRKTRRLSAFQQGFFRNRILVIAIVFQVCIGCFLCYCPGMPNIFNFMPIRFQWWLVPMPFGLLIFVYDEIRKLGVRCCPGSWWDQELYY
Sequence (P18597 whole entry partner): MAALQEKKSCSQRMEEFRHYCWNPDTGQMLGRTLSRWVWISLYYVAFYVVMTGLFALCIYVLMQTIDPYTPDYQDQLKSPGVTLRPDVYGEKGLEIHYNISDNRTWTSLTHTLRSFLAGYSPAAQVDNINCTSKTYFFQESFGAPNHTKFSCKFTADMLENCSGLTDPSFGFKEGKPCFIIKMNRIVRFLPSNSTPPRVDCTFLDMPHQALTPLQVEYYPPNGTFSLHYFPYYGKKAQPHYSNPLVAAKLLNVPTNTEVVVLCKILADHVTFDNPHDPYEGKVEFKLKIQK
property: inhibition at 100 µM (%)

(I) O=C(Nc1ccc(Cl)c(C(F)(F)F)c1)c1cc[n+]([O-])cc1
(II) O=C(Nc1ccc([N+](=O)[O-])cc1)c1cc[n+]([O-])cc1
(III) O=C(Nc1ccc(Cl)cc1NC(=O)c1cc[n+]([O-])cc1)c1cc[n+]([O-])cc1
Sort the items above on inhibition at 100 µM, descending. Reply with the item labels sorted in the order that was asked for.
I, II, III
(I: 168%, II: 84%, III: 27%)

(I) Nc1ccccc1NC(=O)c1cc[n+]([O-])cc1
(II) Nc1ccccc1NC(=O)c1ccncc1 [N--(2-aminophenyl)pyridine-4-carboxamide, N-(2-aminophenyl)-4-pyridinecarboxamide]
Parameter metric = inhibition at 100 µM. Return the lower-valued option from I and II . Choose, then provide that item's label.
II
(II: 54%, I: 130%)
